# Tested on: MDA-MB-468
# ASSAY_INFO: Antiproliferative activity against human MDA-MB-468 cells incubated for 5 days by SRB assay
# Type: functional, cell-based
# CONDITIONS: MDA-MB-468, 120 h
Numbered stars: 1 amine (or outer) side, 2 acyl side, 3 side chain; on linkers, the order of the positions; unused ones are H or OH. Square brackets hold non-standard residues; d marks the D form. Peptide text beside a SMILES is read from it. * marks the point of attachment. X6 = CCCC[C@H](O)C[C@@H](C)C[C@H](N[*:1])C(=O)[*:2]; X1 = CCCCCC[C@@H](C)C[C@H](N[*:1])C(=O)[*:2]; NH((S)CH(Me)CH2NHC2H4OH) = C[C@@H](CNCCO)N*; X5 = CCCCCCC(=O)CCC[C@H](N[*:1])C(=O)[*:2]; Aib = CC(C)(N)C(=O)O; Butyryl = CCCC(=O)*; βAla = NCCC(=O)O
Quick reference: pIC50 of the listed items.
Recall that pIC50 is obtained by taking minus log10 of the concentration measured in molar.

Look over these answered cases.
{"COMPOUND": "CCCCCCC(=O)CCC[C@H](NC(=O)[C@@H]1CCCN1C(=O)CCC)C(=O)NC(C)(C)C(=O)NC(C)(C)C(=O)N[C@@H](C[C@H](C)CCCCCC)C(=O)N[C@@H](CC(C)C)C(=O)NC(C)(C)C(=O)N[C@@H](CC(C)C)C(=O)NCCC(=O)N[C@@H](C)CNCCO (Butyryl-P[X5][Aib][Aib][X1]L[Aib]L[βAla]-{NH((S)CH(Me)CH2NHC2H4OH)})", "pIC50": 8.10}
{"COMPOUND": "CCCCCC[C@@H](C)C[C@H](NC(=O)C(C)(C)NC(=O)C(C)(C)NC(=O)[C@H](CCCC(O)CCCC)NC(=O)[C@@H]1CCCN1C(=O)CCC)C(=O)N[C@@H](CC(C)C)C(=O)NC(C)(C)C(=O)N[C@@H](CC(C)C)C(=O)NCCC(=O)N[C@@H](C)CNCCO (mixture of isomers)", "pIC50": 7.70}

Moving on to another compound below.
# compound CCCCCC[C@@H](C)C[C@H](NC(=O)C(C)(C)NC(=O)C(C)(C)NC(=O)[C@H](C[C@H](C)C[C@@H](O)CCCC)NC(=O)[C@@H]1CCCN1C(=O)CCC)C(=O)N[C@@H](CC(C)C)C(=O)NC(C)(C)C(=O)N[C@@H](CC(C)C)C(=O)NCCC(=O)N[C@@H](C)CNCCO (Butyryl-P[X6][Aib][Aib][X1]L[Aib]L[βAla]-{NH((S)CH(Me)CH2NHC2H4OH)}) ; its pIC50 = 6.53

* * *

# Tested on: MDA-MB-468
# ASSAY_INFO: Antiproliferative activity against human MDA-MB-468 cells incubated for 5 days by SRB assay
# Assay type: functional, cell-based
# CONDITIONS: MDA-MB-468, 120 h
Numbered stars: 1 amine (or outer) side, 2 acyl side, 3 side chain; on linkers, the order of the positions; unused ones are H or OH. Square brackets hold non-standard residues; d marks the D form. Peptide text beside a SMILES is read from it. * marks the point of attachment. X8 = CCC(=O)C[C@H](O)C[C@@H](C)C[C@H](N[*:1])C(=O)[*:2]; X2 = CCCC[C@@H](O)C[C@@H](C)C[C@H](N[*:1])C(=O)[*:2]; Nva(5-pentanoyl) = CCCCC(=O)CCC[C@H](N)C(=O)O; X1 = CCCCCC[C@@H](C)C[C@H](N[*:1])C(=O)[*:2]; NH((S)CH(Me)CH2NHC2H4OH) = C[C@@H](CNCCO)N*; Aoc(2) = CCCCCC[C@H](N)C(=O)O; Aib = CC(C)(N)C(=O)O; Butyryl = CCCC(=O)*; βAla = NCCC(=O)O
Quick reference: pIC50 of the listed items.
Recall that pIC50 is obtained by taking minus log10 of the concentration measured in molar.

Look over these answered cases.
{"COMPOUND": "CCCCCC[C@@H](C)C[C@H](NC(=O)C(C)(C)NC(=O)C(C)(C)NC(=O)[C@H](CCCC(=O)CCCC)NC(=O)[C@@H]1CCCN1C(=O)CCC)C(=O)N[C@@H](CC(C)C)C(=O)NC(C)(C)C(=O)N[C@@H](CC(C)C)C(=O)NCCC(=O)N[C@@H](C)CNCCO (Butyryl-P[Nva(5-pentanoyl)][Aib][Aib][X1]L[Aib]L[βAla]-{NH((S)CH(Me)CH2NHC2H4OH)})", "READOUT_LABEL": "pIC50", "READOUT_VALUE": 8.00}
{"COMPOUND": "CCCCCC[C@@H](C)C[C@H](NC(=O)C(C)(C)NC(=O)C(C)(C)NC(=O)[C@H](CO)NC(=O)[C@@H]1CCCN1C(=O)CCC)C(=O)N[C@@H](CC(C)C)C(=O)NC(C)(C)C(=O)N[C@@H](CC(C)C)C(=O)NCCC(=O)N[C@@H](C)CNCCO (Butyryl-PS[Aib][Aib][X1]L[Aib]L[βAla]-{NH((S)CH(Me)CH2NHC2H4OH)})", "READOUT_LABEL": "pIC50", "READOUT_VALUE": 7.13}
{"COMPOUND": "CCCCCC[C@@H](C)C[C@H](NC(=O)C(C)(C)NC(=O)C(C)(C)NC(=O)[C@H](CCCCCC)NC(=O)[C@@H]1CCCN1C(=O)CCC)C(=O)N[C@@H](CC(C)C)C(=O)NC(C)(C)C(=O)N[C@@H](CC(C)C)C(=O)NCCC(=O)N[C@@H](C)CNCCO (Butyryl-P[Aoc(2)][Aib][Aib][X1]L[Aib]L[βAla]-{NH((S)CH(Me)CH2NHC2H4OH)})", "READOUT_LABEL": "pIC50", "READOUT_VALUE": 6.85}
{"COMPOUND": "CCCCCC[C@@H](C)C[C@H](NC(=O)C(C)(C)NC(=O)C(C)(C)NC(=O)[C@H](C[C@H](C)C[C@@H](O)CC(=O)CC)NC(=O)[C@@H]1CCCN1C(=O)CCC)C(=O)N[C@@H](CC(C)C)C(=O)NC(C)(C)C(=O)N[C@@H](CC(C)C)C(=O)NCCC(=O)N[C@@H](C)CNCCO (Butyryl-P[X8][Aib][Aib][X1]L[Aib]L[βAla]-{NH((S)CH(Me)CH2NHC2H4OH)})", "READOUT_LABEL": "pIC50", "READOUT_VALUE": 8.10}

Moving on to another compound below.
Entry CCCCCC[C@@H](C)C[C@H](NC(=O)C(C)(C)NC(=O)C(C)(C)NC(=O)[C@H](C[C@H](C)C[C@H](O)CCCC)NC(=O)[C@@H]1CCCN1C(=O)CCC)C(=O)N[C@@H](CC(C)C)C(=O)NC(C)(C)C(=O)N[C@@H](CC(C)C)C(=O)NCCC(=O)N[C@@H](C)CNCCO (Butyryl-P[X2][Aib][Aib][X1]L[Aib]L[βAla]-{NH((S)CH(Me)CH2NHC2H4OH)}) , tested on MDA-MB-468, has a reported pIC50 of 6.95

* * *

# System: MDA-MB-468
# ASSAY_INFO: Antiproliferative activity against human MDA-MB-468 cells incubated for 5 days by SRB assay
# Format: functional, cell-based
# CONDITIONS: MDA-MB-468, 120 h
Numbered stars: 1 amine (or outer) side, 2 acyl side, 3 side chain; on linkers, the order of the positions; unused ones are H or OH. Square brackets hold non-standard residues; d marks the D form. Peptide text beside a SMILES is read from it. * marks the point of attachment. X1 = CCCCCC[C@@H](C)C[C@H](N[*:1])C(=O)[*:2]; NH((S)CH(Me)CH2NHC2H4OH) = C[C@@H](CNCCO)N*; hSer = N[C@@H](CCO)C(=O)O; Aib = CC(C)(N)C(=O)O; Butyryl = CCCC(=O)*; βAla = NCCC(=O)O
READOUT_LABEL: IC50 (nM)
Express it in nM; write the number only.

Entry CCCCCC[C@@H](C)C[C@H](NC(=O)C(C)(C)NC(=O)C(C)(C)NC(=O)[C@H](CCO)NC(=O)[C@@H]1CCCN1C(=O)CCC)C(=O)N[C@@H](CC(C)C)C(=O)NC(C)(C)C(=O)N[C@@H](CC(C)C)C(=O)NCCC(=O)N[C@@H](C)CNCCO (Butyryl-P[hSer][Aib][Aib][X1]L[Aib]L[βAla]-{NH((S)CH(Me)CH2NHC2H4OH)}) , tested on MDA-MB-468, has a reported IC50 of 30

* * *

# System: SK-BR-3
# ASSAY_INFO: Antiproliferative activity against human SKBR3 cells incubated for 5 days by SRB assay
# Assay type: functional, cell-based
# CONDITIONS: SK-BR-3, 120 h
Numbered stars: 1 amine (or outer) side, 2 acyl side, 3 side chain; on linkers, the order of the positions; unused ones are H or OH. Square brackets hold non-standard residues; d marks the D form. Peptide text beside a SMILES is read from it. * marks the point of attachment. Nva(5-pentanoyl) = CCCCC(=O)CCC[C@H](N)C(=O)O; X1 = CCCCCC[C@@H](C)C[C@H](N[*:1])C(=O)[*:2]; NH((S)CH(Me)CH2NHC2H4OH) = C[C@@H](CNCCO)N*; X9 = CCC(=O)CC(O)CCC[C@H](N[*:1])C(=O)[*:2]; Aoc(2) = CCCCCC[C@H](N)C(=O)O; Aib = CC(C)(N)C(=O)O; Butyryl = CCCC(=O)*; βAla = NCCC(=O)O
Quick reference: IC50 of the listed items.
Express it in µM; write the number only.

{"COMPOUND": "CCCCCC[C@@H](C)C[C@H](NC(=O)C(C)(C)NC(=O)C(C)(C)NC(=O)[C@H](CCCCCC)NC(=O)[C@@H]1CCCN1C(=O)CCC)C(=O)N[C@@H](CC(C)C)C(=O)NC(C)(C)C(=O)N[C@@H](CC(C)C)C(=O)NCCC(=O)N[C@@H](C)CNCCO (Butyryl-P[Aoc(2)][Aib][Aib][X1]L[Aib]L[βAla]-{NH((S)CH(Me)CH2NHC2H4OH)})", "UNITS_SYMBOL": "µM", "IC50": 0.24}

Entry CCCCCC[C@@H](C)C[C@H](NC(=O)C(C)(C)NC(=O)C(C)(C)NC(=O)[C@H](CCCC(=O)CCCC)NC(=O)[C@@H]1CCCN1C(=O)CCC)C(=O)N[C@@H](CC(C)C)C(=O)NC(C)(C)C(=O)N[C@@H](CC(C)C)C(=O)NCCC(=O)N[C@@H](C)CNCCO (Butyryl-P[Nva(5-pentanoyl)][Aib][Aib][X1]L[Aib]L[βAla]-{NH((S)CH(Me)CH2NHC2H4OH)}) , tested on SK-BR-3, has a reported IC50 of 0.03

Entry CCCCCC[C@@H](C)C[C@H](NC(=O)C(C)(C)NC(=O)C(C)(C)NC(=O)[C@H](CCCC(O)CC(=O)CC)NC(=O)[C@@H]1CCCN1C(=O)CCC)C(=O)N[C@@H](CC(C)C)C(=O)NC(C)(C)C(=O)N[C@@H](CC(C)C)C(=O)NCCC(=O)N[C@@H](C)CNCCO (stereo partly drawn) (Butyryl-P[X9][Aib][Aib][X1]L[Aib]L[βAla]-{NH((S)CH(Me)CH2NHC2H4OH)}) , tested on SK-BR-3, has a reported IC50 of 0.5

This collection of values is drawn from ChEMBL document CHEMBL4350995.
